Source: paper PMC10397247

I'd be grateful if you could share measured interaction score for these entries.
- Assayed system: T1, P9mS
- T1 chain: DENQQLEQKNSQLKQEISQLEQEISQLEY
- Test summary: two-hybrid library CCNG1;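 note: natural log of median RNA to DNA barcode read ratio; higher means stronger binding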
Give bare numbers.

A selection of reference data follows.
DEIQSLEEKNSQLKQEISQLEEKNQQLKY [P7mS] ... 0.076
DENQQLEQKNSQLKQEISQLEQEISQLEY [P9mS] ... -1.32
DKNSQLKEEIQQLEEENQQLEEKISQLKY [P6mS] ... -0.654
DENQQLEQEISQLEQEISQLEQKNSQLKY [P11mS] ... -0.542

# per-item lookup of interaction score; items listed below
1. DKNSQLKEKISQLKEKIQQLKEENQQLEY [P12mS]
2. DEIQQLEEEISQLEQKNSQLKEKNQQLKY [P3mS]
3. DKNSQLKEENSQLEEKIQQLKEKIQQLKY [P10mS]

-0.472
-0.496
-0.677

# per-item lookup of interaction score; items listed below
1. DKISQLKQKIQQLKQENQQLEEENSQLEY [P4mS]
2. DENSQLEEKISQLKQKNSQLKEEIQQLEY [P5mS]
3. DKISQLKEENQQLEQKIQQLKEENSQLEY [P8mS]

1: -1.28; 2: -2.82; 3: -0.61
